Biological target: human recombinant adrenergic α2A receptor (Homo sapiens)
Construct: expressed in transfected cells; host or cells: insect Sf9 cells
Sequence (P08913 whole entry): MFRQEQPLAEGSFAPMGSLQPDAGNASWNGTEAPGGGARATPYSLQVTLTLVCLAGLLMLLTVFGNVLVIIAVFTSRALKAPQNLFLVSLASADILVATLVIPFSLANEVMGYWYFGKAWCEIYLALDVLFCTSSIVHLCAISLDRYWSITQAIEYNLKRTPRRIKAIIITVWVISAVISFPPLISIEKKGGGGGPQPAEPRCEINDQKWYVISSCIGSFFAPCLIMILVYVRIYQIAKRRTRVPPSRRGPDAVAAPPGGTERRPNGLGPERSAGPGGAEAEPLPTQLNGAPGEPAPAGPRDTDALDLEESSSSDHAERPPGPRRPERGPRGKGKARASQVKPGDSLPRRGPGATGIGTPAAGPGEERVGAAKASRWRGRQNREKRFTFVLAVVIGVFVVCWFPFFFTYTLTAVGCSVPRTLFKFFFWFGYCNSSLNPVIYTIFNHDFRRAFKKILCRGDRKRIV
Experiment: Radioligand binding, adrenergic α2A ([3H]MK-912)
Conditions: 0.1 μM compound; 0.1 µM
# Percentage inhibition of ligand binding, Adrenergic α2A values compiled below
experimental endpoint: Percentage inhibition of ligand binding, Adrenergic α2A (%)

INSERT INTO measurements (compound, display_unit, reported_measurement) VALUES
  ('CNC(Cn1c2c(c3cc(C)ccc31)CN(C)CC2)c1ccc(F)cc1 (single isomer, unassigned) [II-12b]', '%', 15),
  ('Cc1ccc2c(c1)c1c(n2C(C)C(O)c2ccccc2)CCN(C)C1 (single isomer, unassigned) [II-95b]', '%', '−1'),
  ('Cc1ccc2c(c1)c1c(n2CC(N)c2ccc(F)cc2)CCN(C)C1 (single isomer, unassigned) [II-11b]', '%', 43),
  ('Cc1ccc2c(c1)c1c(n2CC(N)c2ccc(F)cc2)CCN(C)C1 (stereo not drawn) [II-11]', '%', 25),
  ('Cc1cnc2c(c1)c1c(n2CC(C)(O)c2cccnc2)CCN(C)C1 (single isomer, unassigned) [II-99b]', '%', 16),
  ('CC(=O)OC(C)(Cn1c2c(c3cc(C)ccc31)CN(C)CC2)c1cccnc1 (single isomer, unassigned) [II-15b]', '%', 18),
  ('OCCN1CCc2c(c3cc(Cl)ccc3n2CC(O)c2cccnc2)C1 (single isomer, unassigned) [II-94a]', '%', 0),
  ('OCCN1CCc2c(c3cc(Cl)ccc3n2CC(O)c2ccncc2)C1 (stereo not drawn) [II-93b]', '%', 4),
  ('Cc1ccc2c(c1)c1c(n2C(C)C(O)c2ccccc2)CCN(C)C1 (single isomer, unassigned) [II-95a]', '%', 16),
  ('OCCN1CCc2c(c3cc(Cl)ccc3n2CC(O)c2cccnc2)C1 (single isomer, unassigned) [II-94b]', '%', '−5'),
  ('CN1CCc2c(c3cc(Cl)c(Cl)cc3n2CC(C)(O)c2ccncc2)C1 (stereo not drawn)', '%', 64),
  ('C/C(=C\n1c2c(c3cc(C)ccc31)CN(C)CC2)c1ccc(Cl)c(Cl)c1', '%', 98),
  ('CN1CCc2c(n(CC(O)c3ccc(F)c(F)c3)c3ccc(Cl)cc23)CC1 (single isomer, unassigned) [339a]', '%', 37),
  ('Cc1ccc2c(c1)c1c(n2CC(C)(c2cnccn2)N(C)C)CCN2CCCC12 (single isomer, unassigned) [II-6a]', '%', 45),
  ('CC(=O)NC(Cn1c2c(c3cc(C)ccc31)CN(C)CC2)c1ccncc1 (single isomer, unassigned) [II-1a]', '%', 15),
  ('CC(Cn1c2c(c3ccccc31)CN(C)CC2)c1ccc(F)cc1 (single isomer, unassigned) [272a]', '%', 33),
  ('Cc1cnc2c(c1)c1c(n2CC(O)c2ccc(C)nc2)CCN(C)C1 (single isomer, unassigned) [II-100b]', '%', 4),
  ('CNC(Cn1c2c(c3cc(C)ccc31)CN(C)CC2)c1ccc(F)cc1 (stereo not drawn) [II-12]', '%', 11),
  ('Cc1ccc(CCn2c3c(c4c(Cl)ccc(Cl)c42)CN(C)CC3)cn1', '%', 84),
  ('Cc1ccc2c(c1)c1c(n2CC(C)(c2cnccn2)N(C)C)CCN2CCCC12 (single isomer, unassigned) [II-6b]', '%', 81),
  ('Cc1ccc2c(c1)c1c(n2CC(N)c2ccc(F)cc2)CCN(C)C1 (single isomer, unassigned) [II-11a]', '%', 22),
  ('COc1ccc(C(C)(O)Cn2c3c(c4cc(C)ccc42)CN(C)CC3)cc1 (stereo not drawn) [254b]', '%', 57),
  ('Cc1ccc2c(c1)c1c(n2CC(O)c2ccccc2F)CN(C)CC1 (single isomer, unassigned) [II-49b]', '%', 18),
  ('CC(Cn1c2c(c3ccccc31)CN(C)CC2)c1ccc(F)cc1 (single isomer, unassigned) [272b]', '%', 68),
  ('Cc1ccc2c(c1)c1c(n2CC(C)c2ccc(C)nc2)CCN(C)C1 (single isomer, unassigned) [289b]', '%', 53),
  ('CNC(Cn1c2c(c3cc(C)ccc31)CN(C)CC2)c1ccc(F)cc1 (single isomer, unassigned) [II-12a]', '%', 25),
  ('CN1CCc2c(n(CC(O)c3ccc(F)c(F)c3)c3ccc(Cl)cc23)CC1 (single isomer, unassigned) [339b]', '%', 64),
  ('CC(=O)NC(Cn1c2c(c3cc(C)ccc31)CN(C)CC2)c1ccncc1 (single isomer, unassigned) [II-1b]', '%', 1),
  ('CC(=O)OC(C)(Cn1c2c(c3cc(C)ccc31)CN(C)CC2)c1cccnc1 (single isomer, unassigned) [II-15a]', '%', 7),
  ('Cc1ccc2c(c1)c1c(n2CC(c2ccc(F)cc2)N(C)C)CCN(C)C1 (single isomer, unassigned) [II-14b]', '%', 17);
